Listed below: inhibition values for each entry.
assay: M. tuberculosis H37Rv growth inhibitors, H37Rv strain (AID 1626); conditions: active compounds read high, concentration not given here;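 also: bacteria incubated seven days before Alamar blue readout; 0% = bacteria only wells and 100% = bacteria with antibiotic wells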
About 2,000 (0.91%) of roughly 220,000 compounds were called active. Another 2% or so got no clear call; they are omitted. Only a sample is shown. Measured potencies and affinities stand elsewhere.
assay_metric: inhibition (%)

{"columns": ["compound", "assay_metric", "endpoint_result"],
 "data": [
  ["COc1ccc(N2CCC(CNC(=O)Nc3cccc(OC)c3)C2)cc1 (centres undefined)", "inhibition", 8.56],
  ["CC1(C)Cc2nc3sc4c(SCC(=O)O)ncnc4c3cc2CO1", "inhibition", -5.61],
  ["COc1ccc(NC(=S)NCc2ccc(S(N)(=O)=O)cc2)c(OC)c1", "inhibition", 6.58],
  ["NC1=NC(c2ccc(Cl)cc2)n2c(nc3ccccc32)N1 (centres undefined)", "inhibition", 4.44],
  ["Cc1ccc(CS(=O)(=O)CCC(=O)NCCC2=CCCCC2)cc1", "inhibition", 7.74],
  ["Cc1cccc(C2N=C(N)Nc3nc4ccccc4n32)c1 (centres undefined)", "inhibition", -9.29],
  ["Cc1ccc(C2N=C(N)Nc3nc4ccccc4n32)cc1 (centres undefined)", "inhibition", -6.16],
  ["CC(O)C1C(=O)OC2(C)CC(C)(C)NC(=S)N12 (centres undefined)", "inhibition", -6.84],
  ["CCCOc1ccc(-c2nnn(CC(=O)OCC)n2)cc1", "inhibition", 79.1],
  ["Cc1ccc(Cn2ccc(=O)c(Cc3c(Cl)cccc3Cl)c2C)cc1", "inhibition", 0.62],
  ["O=C(O)c1cc(NC(=O)C2CCCO2)cc(NC(=O)C2CCCO2)c1 (centres undefined)", "inhibition", -1.59],
  ["O=C(Nc1ccc2c(c1)OCCO2)c1ccccc1F", "inhibition", 6.75],
  ["Cn1cc(CNCc2cn(C)nc2-c2ccc(C3CCCCC3)cc2)cn1", "inhibition", 8.48],
  ["O=C(Cc1cc(=O)[nH][nH]1)N/N=C/c1ccccc1Cl", "inhibition", 0.78],
  ["COc1ccccc1C/C(N)=N/OC(=O)c1ccc(C)c([N+](=O)[O-])c1", "inhibition", 3.93],
  ["CCOC(=O)C1=C(C)Nc2nc3ccccc3n2C1c1ccccc1 (centres undefined)", "inhibition", -9.7],
  ["COC(=O)[C@@H](NC(=O)Nc1ccc(OC)cc1)C(C)C", "inhibition", 2.16],
  ["CC(=O)C1=C(C)NC(=O)NC1c1cccs1 (centres undefined)", "inhibition", -8.1],
  ["Cc1ccc(CONC(=O)c2ccc(OC(F)F)cc2)cc1", "inhibition", -0.18],
  ["CCO[C@H]1OC(C(=O)N2CCOCC2)=C[C@@H](c2ccccc2)[C@@H]1CCCO", "inhibition", 0.78],
  ["Cc1ccc(Cn2ccc(=O)c(OCc3ccccc3)c2C)cc1", "inhibition", 1.78],
  ["Cc1occc1-c1nnc(SCC(=O)Nc2nccs2)n1CCc1ccccc1", "inhibition", 1.51],
  ["NC1=NC(c2ccccc2Cl)n2c(nc3ccccc32)N1 (centres undefined)", "inhibition", 7.21],
  ["COC(=O)CCC(=O)N1CCc2cc(S(=O)(=O)N3CCc4ccccc43)ccc21", "inhibition", -6.96]
]}

---

assay: M. tuberculosis H37Rv growth inhibitors, H37Rv strain (AID 1626); conditions: active compounds read high, concentration not given here;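 also: bacteria incubated seven days before Alamar blue readout; 0% = bacteria only wells and 100% = bacteria with antibiotic wells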
Out of some 220,000 compounds screened, about 2,000 (0.91%) were called active. Another 2% or so got no clear call; they are omitted. The list is a sample of the results. Entries with a potency or affinity are not part of this list.
assay_metric: inhibition (%)

{"columns": ["compound", "endpoint_result"],
 "data": [
  ["O=C(CCC1CCCN(C(=O)c2ccsc2)C1)N1CCN(c2ccccn2)CC1 (stereo unspecified)", -1.82],
  ["COc1ccc(C(=O)C2CCCN(Cc3ccc4nonc4c3)C2)c(OC)c1 (stereo unspecified)", 4.61],
  ["O=C(CN1CC(=O)Nc2ccccc21)Nc1ccc(F)c(F)c1", 0.62],
  ["COc1ccc(OC)c(-n2nnnc2SCC(=O)Nc2nc(C)c(C)s2)c1", -6.27],
  ["O=C1N=C(N2CCN(c3cccc4ccccc34)CC2)S/C1=C/c1cccs1", 85.6],
  ["CCN(CC)S(=O)(=O)c1ccc(-c2nnc(SCC(N)=O)n2CC)cc1", -3.31],
  ["Cc1cc(C)cc(N=Cc2c(O)c3ccccc3oc2=O)c1", 6.96],
  ["Cc1ccc2c(c1)C(c1ccncc1)=NNC(c1ccc(F)cc1)=N2", 5.08],
  ["O=C(CN1CCN(c2ccccc2Cl)CC1)NC1CCCc2ccccc21 (stereo unspecified)", 14.2],
  ["O=C(O)c1cccc(N2C(=O)/C(=C/c3ccc([N+](=O)[O-])cc3)C=C2c2ccccc2)c1", 1.03],
  ["Cc1ccccc1N=Cc1cccc(O)c1O", 30.2]
]}

---

experiment: M. tuberculosis H37Rv growth inhibitors, H37Rv strain (AID 1626); settings: active compounds read high, concentration not given here;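 also: bacteria incubated seven days before Alamar blue readout; 0% = bacteria only wells and 100% = bacteria with antibiotic wells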
Among all 220,000 compounds or so, about 2,000 (0.91%) were called active. Not shown: some 2% with an inconclusive outcome. A selection follows. Entries with a potency or affinity are not part of this list.
assay_metric: inhibition (%)

{"columns": ["molecule", "endpoint_result"],
 "data": [
  ["O=C(CCCSc1nc2ccccc2[nH]1)NCc1ccccc1Cl", -0.81],
  ["CCC(=O)NCCc1nc2ccccc2n1CC(=O)c1ccccc1", -2.01],
  ["CC(c1nnnn1C(C)(C)C)N(Cc1cccnc1)Cc1ccccc1Cl (stereo not drawn)", 11.3],
  ["C/C=C(\\C)C(=O)N1CC2(CC(c3cccc(NC(=O)CC(c4ccccc4)c4ccccc4)c3)=NO2)C[C@H]1C(N)=O (stereo partly drawn)", 4.13],
  ["CCOC(=O)c1sc(NC(=O)CSc2nncn2C)nc1C", 4.68],
  ["CCOC(=O)c1c(-c2ccccc2)csc1NC(=O)CSc1nncs1", 4.86],
  ["COC(=O)N/N=C/c1ccccc1", 3.14],
  ["COC(CNC(=O)c1cc(-c2ccncc2)nc2ccc(S(=O)(=O)N3CCOCC3)cc12)OC", -0.15],
  ["O=C(CN1CCN(S(=O)(=O)c2ccc(Cl)cc2)CC1)Nc1ccc(F)cc1F", 6.43],
  ["O=C(CCN1C(=O)C2C3C=CC(C3)C2C1=O)Nc1nccs1 (stereo not drawn)", -5.43],
  ["COC(=O)c1cc(-c2ccccc2)on1", 45],
  ["NS(=O)(=O)c1ccc(NS(=O)(=O)c2ccc(NC(=S)Nc3ccccc3)cc2)cc1", 7.44],
  ["CN1CCN(c2ccccc2NC(=O)c2cc(Br)ccc2Cl)CC1", 12.3],
  ["COc1ccc(Cn2ccnc2CO)cc1[N+](=O)[O-]", -1.53],
  ["CC1(C)OC(=O)C(=NNc2ccc(Br)cc2)C(=O)O1", 76.6],
  ["COC(=O)c1ccc(OC(=O)CCN2c3ccccc3Sc3ccccc32)cc1", 1.13],
  ["O=C(CCN1c2ccccc2Sc2ccccc21)Oc1ccccc1", 22.8],
  ["CN(CCO)c1nc(N)c(C#N)c(CC#N)c1C#N", -7.58],
  ["CCCCn1c(/C=C/c2ccco2)nc2ccccc21", -4.08],
  ["CN(C(=O)COc1ccc(S(=O)(=O)N2CCOCC2)cc1[N+](=O)[O-])C1CCS(=O)(=O)C1 (stereo not drawn)", -7.08],
  ["O=C(NCC(O)CO)c1ccc2[nH]c3ccccc3c2c1 (stereo not drawn)", 1.5],
  ["Cc1cc(NC(=O)/C=C/c2ccccc2)no1", -1.33],
  ["Oc1[nH]c2ccccc2c1C=Nc1ccc2c(c1)OCCO2", 6.37]
]}

---

assay: M. tuberculosis H37Rv growth inhibitors, H37Rv strain (AID 1626); settings: active compounds read high, concentration not given here;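 also: bacteria incubated seven days before Alamar blue readout; 0% = bacteria only wells and 100% = bacteria with antibiotic wells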
The campaign covered roughly 220,000 compounds. About 2,000 (0.91%) were called active. Roughly 2% stayed inconclusive and do not appear here. These entries were drawn from the full list. Measured potencies and affinities stand elsewhere.
Listed below: inhibition values for each entry.

{"columns": ["compound", "inhibition (%)"],
 "data": [
  ["Cc1cnc(C(=O)NCc2ccc(Cl)cc2Cl)cn1", -2.88],
  ["Cc1nnc(SCC(=O)N2CCN(S(=O)(=O)c3ccc(Cl)cc3)CC2)[nH]c1=O", -6.4],
  ["CCOC(=O)CNC(=O)CSc1nnc(-c2ccc(OC)cc2)n1CC", -3.53],
  ["Cc1nn2c(N3CCCC3)cc(C(C)C)nc2c1-c1ccccc1", -3.85],
  ["Cc1ccccc1NC(=O)OCc1cccnc1Sc1ccc(Cl)cc1", 0.86],
  ["CC1SCC(=O)N(CC(=O)Nc2ccc3c(c2)OCCO3)C1=O (stereo unspecified)", 2.44],
  ["CCOc1cccc(-c2cc(-c3n[nH]c(=S)n3CC)c3ccccc3n2)c1", 14.2],
  ["CCc1nc(N2CCCCC2)c2oc3ccccc3c2n1", 22.4],
  ["COc1cc(-c2nc3ccc4ccccc4c3c3c2CCC3)ccc1O", 20.8],
  ["Cc1cc(Nc2c(C)n(C)n(-c3ccccc3)c2=O)n2c(nc3cc(F)c(F)cc32)c1C#N", -5.9],
  ["O=C(NNC(=O)C1CCCO1)c1ccccc1Cl (stereo unspecified)", -7.82],
  ["CC1=C(C(=O)Nc2ccccc2)C(c2ccccn2)n2nc(CCCO)nc2N1 (stereo unspecified)", 2.92],
  ["Cc1nn2c(NCc3ccccn3)cc(C(C)C)nc2c1-c1ccccc1", 99.8],
  ["CCCn1c(Sc2nc3c(c(=O)[nH]c(=O)n3C)n2CCC)nc2c1c(=O)[nH]c(=O)n2C", 3.31],
  ["CC1CCCN(C(=O)Cn2cnc3c2c(=O)n(C)c(=O)n3C)C1 (stereo unspecified)", 10.5],
  ["Cn1c(=O)[nH]c(=O)c2c1nc([N+](=O)[O-])n2Cc1ccccc1", 72.1],
  ["CCc1nc(N2CCC(C)CC2)c2oc3ccccc3c2n1", 21.7],
  ["COc1ccc(-c2nnc3ccc(SCC(=O)NCC4CCCO4)nn23)cc1 (stereo unspecified)", -3.46],
  ["CCOC(=O)N1CCN(C(=O)c2ccc3nc4ccc(Cl)cc4c(=O)n3c2)CC1", 2.6],
  ["Cc1ccccc1C(=O)NNC1CC(=O)N(c2ccc3c(c2)OCCO3)C1=O (stereo unspecified)", -10.4],
  ["Fc1ccc(CSc2ncnc3c2oc2ccccc23)cc1", 15.6],
  ["COc1cc(NC(=S)N2CCC(C(O)(c3ccccc3)c3ccccc3)CC2)cc(OC)c1", 4.64],
  ["O=C(Nc1cccc(O)c1)c1cccc(S(=O)(=O)N2CCCC2)c1", -5.4],
  ["Cc1cc(C)c2c3c(cn2n1)c(=O)n(C)c(=O)n3C", 4.42],
  ["Nc1cc(OC(=O)c2cccs2)nn1S(=O)(=O)c1ccc(F)cc1", 5.67],
  ["COc1cccc(NCc2ccc([N+](=O)[O-])s2)c1", 15.2],
  ["CC(C)Sc1nnc([C@@H](N)Cc2ccccc2)o1", -1.26],
  ["COCCn1c(SCC(=O)N2CCN(c3ccccc3)CC2)nc2c(c1=O)SC(C)C2 (stereo unspecified)", -6.25],
  ["CC1=Nc2ccccc2/C1=C/c1sc(=O)n(CC(=O)N2CCCC2)c1O", -8.48],
  ["CNCCOc1ccccc1OC(C)C", 4.14],
  ["Cc1cc(NCCCN2CCOCC2)n2nc(C)c(-c3ccccc3)c2n1", 1.95],
  ["Cc1cccc(NC(=S)N(CCN(C)C)Cc2cc3cccc(C)c3[nH]c2=O)c1", 12.2],
  ["Cc1nc(SCCO)c2oc3ccccc3c2n1", 10.1],
  ["Cc1nn2c(NCc3ccccn3)cc(C(C)(C)C)nc2c1-c1ccccc1", 68.6],
  ["Cc1nc(SCC(=O)Nc2ccc(F)cc2)c2oc3ccccc3c2n1", -5.02],
  ["Nc1c(C(=O)OCC(=O)NCc2ccccc2)[nH]c(=O)[nH]c1=O", -4.41],
  ["COc1ccc(-c2nnc(-c3ccc(OCC(C)C)cc3)o2)cc1", -2.52],
  ["COc1ccc(C(=O)NC(=O)Nc2ncccc2C)cc1", -9.06],
  ["O=C(CN1CCCCC1)c1ccc(OC(F)F)cc1", -5.74],
  ["CC1=Nc2ccccc2/C1=C/c1sc(=S)n(-c2cccc(C(=O)O)c2)c1O", 4.52],
  ["CCCc1cc(N2CCCC2)n2nc(C)c(-c3ccccc3)c2n1", -0.95],
  ["COc1c(C)cccc1C(=O)Nc1ccc(N2CCOCC2)c(Cl)c1", 6.42],
  ["CC(C)(C)S(=O)(=O)c1cnc(-c2ccccn2)nc1N", -8.12],
  ["O=C1CC2(CCCCCC2)Oc2ccc(Cl)cc21", -6.31],
  ["COc1ccccc1N(C(=O)c1snc(C(N)=O)c1N)C(C(=O)NCCC(C)C)c1ccco1 (stereo unspecified)", -1.7],
  ["Cc1[nH]c(=O)[nH]c(=O)c1/C=C/C(=O)O", -8.34]
]}

Value source: PubChem BioAssay AID1626
